# assay.remarks: Intrinsic clearance in mouse microsomes assessed as per gram protein at 0.5 uM after 30 mins in presence of NADPH by LC-MS/MS analysis
# Assay type: ADME, Microsome
# setup.conditions: 0.5 h
reported.endpoint: clearance

molecule="CC1(c2ccc(S(N)(=O)=O)cc2)NC(=O)N(CC(=O)c2ccc(F)cc2F)C1=O (racemic)" observed_value="2.67 mL/min/g"

###

# assay.remarks: Intrinsic clearance in human microsomes assessed as per gram protein at 0.5 uM after 30 mins in presence of NADPH by LC-MS/MS analysis
# Assay type: ADME, Microsome
# setup.conditions: 0.5 h
reported.endpoint: clearance

compound="CC1(c2ccc(S(N)(=O)=O)cc2)NC(=O)N(CC(=O)c2ccc(F)cc2F)C1=O (racemic)" observed_value="< 0.4 mL/min/g"
